# Details: 24 °C
The entries below come with measured solubility values attached.

Molecule: CN(C)CCCN1c2ccccc2Sc2ccccc21
solubility (µM): 49.9
--
Molecule: CC(C)COC(=O)c1ccccc1C(=O)OCC(C)C
solubility (µM): 22.3
--
Molecule: O=C(O)c1ccc(O)c(C(=O)O)c1
solubility (µM): 1650
--
Molecule: CNCCCN1c2ccccc2CCc2ccccc21
solubility (µM): 220
--
Molecule: CC(C)Oc1cc(-n2nc(C(C)(C)C)oc2=O)c(Cl)cc1Cl
solubility (µM): 2.03
--
Molecule: CC(C)N(N=O)C(C)C
solubility (µM): 99900
--
Molecule: CC(C)CC(=O)CC(C)C
solubility (µM): 18600
--
Molecule: COP(=S)(Oc1cc(Cl)c(Br)cc1Cl)c1ccccc1 (centres undefined)
solubility (µM): 0.0728
--
Molecule: Nc1cccc2nc3ccccc3cc12
solubility (µM): 60

---

Measured Endpoint: log10 of solubility (log10 of the value in mM)

Input Smiles: Nc1ccc(-c2ccc(Cl)cc2)cc1
Measured: -1.64

Input Smiles: Cc1ccc(C(=O)O)cc1C
Measured: -0.07

Input Smiles: Nc1ccc(O)c2c1C(=O)c1ccccc1C2=O
Measured: -0.82

Input Smiles: Cc1cccc(Cl)c1
Measured: -0.52

Input Smiles: Nc1nc(=O)c2[nH]c(=O)c(=O)[nH]c2[nH]1
Measured: -2.17

Input Smiles: O=C(O)c1cc(Cl)cc(Cl)c1
Measured: -0.11

Input Smiles: CC(=O)Oc1c(C(C)(C)C)cc([N+](=O)[O-])c(C)c1[N+](=O)[O-]
Measured: -1.47

Input Smiles: Cc1cc(C)c(C)c(C)c1C
Measured: -0.98

Input Smiles: Cc1cccc(Br)c1
Measured: -0.52

Input Smiles: O=C1C=CC(=C(c2ccc(O)cc2)c2ccc(O)cc2)C=C1
Measured: 0.62

Input Smiles: O=C1c2ccccc2C(=O)c2c1ccc(O)c2O
Measured: 0.22

Input Smiles: Cc1cc(C)c(C(=O)O)c(C)c1
Measured: 0.64

Input Smiles: OC[C@H]1O[C@H](OC[C@H]2O[C@H](O[C@]3(CO)O[C@H](CO)[C@@H](O)[C@@H]3O)[C@H](O)[C@@H](O)[C@@H]2O)[C@H](O)[C@@H](O)[C@H]1O
Measured: 2.60

Input Smiles: O=C(O)c1ccc(Cl)cc1Cl
Measured: 0.40

Input Smiles: CCCCOc1ccc(C(=O)OCCN(CC)CC)cc1
Measured: -0.89

Input Smiles: COc1cc(NS(=O)(=O)c2ccc(N)cc2)nc(C)n1
Measured: 0.46

Input Smiles: c1ccc2c3c(ccc2c1)-c1cccc2cccc-3c12
Measured: -5.00

Input Smiles: O=C(Nc1ccccc1)Nc1ccccc1
Measured: -0.15

Input Smiles: Cc1cc(C)c(N)cc1C
Measured: 1.05

Input Smiles: NC(=O)c1cc(Cl)cc(Cl)c1N
Measured: 0.92

Input Smiles: COc1coc(CSP(=O)(OC)OC)cc1=O
Measured: 3.73

Input Smiles: CN(C)c1ccc(C(=O)O)cc1
Measured: -0.40

Input Smiles: CC=CCCl
Measured: 1.04

Input Smiles: CC(C)(C)NC[C@H](O)COc1ccccc1C1CCCC1
Measured: 1.38

Input Smiles: ClCCCCCl
Measured: 2.08

Input Smiles: CC(=O)N=c1sc(S(N)(=O)=O)nn1C
Measured: 1.17

Input Smiles: O=C(O)c1ccc(Br)cc1
Measured: -0.53

---

# Details: 30 °C

Compound: CC1OC(C)OC(C)O1 (configuration not stated)
solubility, µM: 847000
//
Compound: CC1=CC(=O)c2ccccc2C1=O
solubility, µM: 929
//
Compound: COP1(=S)OCc2ccccc2O1 (configuration not stated)
solubility, µM: 268
//
Compound: C/C=C/C=C/C(=O)O
solubility, µM: 22300
//
Compound: Cc1ccc(S(=O)(=O)NC(=O)NN2CCCCCC2)cc1
solubility, µM: 210
//
Compound: CN(C)CCN(Cc1cccs1)c1ccccn1
solubility, µM: 2300
//
Compound: CC(=O)Nc1nnc(S(N)(=O)=O)s1
solubility, µM: 4410

---

The entries below come with measured solubility values attached.
# Details: 21 °C

Input Smiles: CCOc1ccc(NC(N)=O)cc1
solubility: 6.71 mM

Input Smiles: C=C1c2cccc(O)c2C(=O)C2=C(O)[C@]3(O)C(=O)C(C(N)=O)=C(O)[C@@H](N(C)C)[C@@H]3[C@@H](O)[C@H]12
solubility: 17.1 mM

Input Smiles: CN(C)[C@@H]1C(O)=C(C(N)=O)C(=O)[C@@]2(O)C(O)=C3C(=O)c4c(O)ccc(Cl)c4[C@@H](O)[C@H]3C[C@@H]12
solubility: 3.26 mM

Input Smiles: O=C(O)CCCCCCCCCCCCC(=O)O
solubility: 0.774 mM

Input Smiles: CC12CCC(CC1)C(C)(C)O2
solubility: 17.2 mM

Input Smiles: Brc1cccc2ccccc12
solubility: 0.045 mM

Input Smiles: O=C(O)CCCCCCCCCC(=O)O
solubility: 23.6 mM

Input Smiles: NC(=S)c1c(Cl)cccc1Cl
solubility: 4.61 mM

Input Smiles: O=C(O)CCCCCCCCCCCC(=O)O
solubility: 6.14 mM

---

# Details: 25 °C
Measured Endpoint: log10 of solubility (log10 of the value in mM)

Input Smiles: O=[N+]([O-])c1ccccc1O
log10 of solubility: 1.26
//
Input Smiles: c1ccc2c(c1)Cc1c-2ccc2ccccc12
log10 of solubility: -3.68
//
Input Smiles: Clc1ccc(-c2cccc(Cl)c2)cc1
log10 of solubility: -3.40
//
Input Smiles: CC(C)(N)C(=O)O
log10 of solubility: 3.25
//
Input Smiles: Clc1cccc(Cl)c1-c1ccccc1
log10 of solubility: -1.97
//
Input Smiles: COc1ccccc1
log10 of solubility: 0.98
//
Input Smiles: CCOC(=O)c1ccccc1
log10 of solubility: 0.68
//
Input Smiles: CCCCCCc1ccccc1
log10 of solubility: -2.25

---

The entries below come with measured solubility values attached.
# Details: 28 °C
Measured Endpoint: solubility (mM)

Input Smiles: CCOC(=O)[C@H](Cc1ccc(O)cc1)NC(C)=O
Measured Endpoint: solubility
Measured: 13.8

Input Smiles: c1ccc2c(c1)CCCC2
Measured Endpoint: solubility
Measured: 0.354

Input Smiles: CCOC(=O)[C@H](Cc1ccccc1)NC(C)=O
Measured Endpoint: solubility
Measured: 17.6

Input Smiles: COc1ccc(C[C@H]2NC[C@H](O)[C@H]2OC(C)=O)cc1
Measured Endpoint: solubility
Measured: 24.7

Input Smiles: O=C(O)CCCC(=O)O
Measured Endpoint: solubility
Measured: 12100

---

# Details: 20 °C
Categories are defined by ranges of solubility, namely lo: < 0.1 mM; med: ≥ 0.1 mM and < 10 mM; hi: ≥ 10 mM

Compound: COP(=S)(OC)Oc1ccc([N+](=O)[O-])c(Cl)c1
Assigned Category: med

Compound: O=c1c(O)c(-c2ccc(O)cc2O)oc2cc(O)cc(O)c12
Assigned Category: med

Compound: CCC(Cl)[N+](=O)[O-] (stereo not given)
Assigned Category: hi

Compound: CC(=O)CC1CCCCN1 (stereo not given)
Assigned Category: hi

Compound: COc1ccc(Oc2ccc(NC(=O)N(C)C)cc2)cc1
Assigned Category: lo

Compound: CCCCI
Assigned Category: med

Compound: COC(=O)c1cc(Cl)cc(N)c1Cl
Assigned Category: med

Compound: Clc1ccc(-c2cccc(Cl)c2Cl)c(Cl)c1
Assigned Category: lo

Compound: O=C(O)c1cnc(O)nc1O
Assigned Category: hi

Compound: Nc1ccc2cc3ccc(N)cc3nc2c1
Assigned Category: hi

Compound: CCOP(=S)(OCC)Oc1cc(C)nc(N(CC)CC)n1
Assigned Category: lo

Compound: c1ccc2c(c1)cnc1ccccc12
Assigned Category: med

Compound: CCCCC(C)(C)CCC
Assigned Category: lo

Compound: Clc1cccc(-c2c(Cl)cccc2Cl)c1
Assigned Category: lo

Compound: Clc1ccc(-c2ccc(Cl)c(Cl)c2Cl)cc1
Assigned Category: lo

Compound: Clc1ccc(-c2ccc(Cl)c(Cl)c2)cc1
Assigned Category: lo

Compound: C#CC(C)N(C)C(=O)Nc1ccc(Cl)cc1 (stereo not given)
Assigned Category: med

Compound: CCCOC(=O)c1ccccc1C(=O)OCCC
Assigned Category: med

Compound: CNC(=O)N(C)c1nc2ccccc2s1
Assigned Category: med

Compound: Cc1ccc(Cl)cc1
Assigned Category: med

Compound: CCC(Cl)(Cl)[N+](=O)[O-]
Assigned Category: hi

Compound: OCCCCl
Assigned Category: hi

Compound: O=C(O)Cn1c(=O)sc2cccc(Cl)c21
Assigned Category: med

Compound: N[C@@H](Cc1ccc(O)c(O)c1)C(=O)O
Assigned Category: hi

Compound: C=CC(=O)Oc1c(Br)cc(Cl)c2cccnc12
Assigned Category: lo

Compound: Clc1ccc(-c2cc(Cl)ccc2Cl)c(Cl)c1
Assigned Category: lo

Compound: O=c1nc[nH]c2nccnc12
Assigned Category: hi

Compound: COc1ccc2c3c1O[C@H]1[C@@H](O)C=C[C@H]4[C@@H](C2)N(C)CC[C@@]341
Assigned Category: hi

Compound: CCCCCCCC(=O)OC
Assigned Category: med
